molecular target: human AspH (His6-AspH315–758) (Homo sapiens, UniProt Q12797); construct: N-Terminally His6-tagged human AspH315–758 (His6-AspH315–758) was produced in Escherichia coli BL21 (DE3) cells; made in house; host or cells: Escherichia coli BL21 (DE3), pET-28a(+) vector; test: SPE-MS AspH inhibition assay (hFX-CP101-119 substrate hydroxylation); assay type: biochemical; details: AspH-inhibitor screening, Plate 1-duplicate
Sequence (Q12797 315-758): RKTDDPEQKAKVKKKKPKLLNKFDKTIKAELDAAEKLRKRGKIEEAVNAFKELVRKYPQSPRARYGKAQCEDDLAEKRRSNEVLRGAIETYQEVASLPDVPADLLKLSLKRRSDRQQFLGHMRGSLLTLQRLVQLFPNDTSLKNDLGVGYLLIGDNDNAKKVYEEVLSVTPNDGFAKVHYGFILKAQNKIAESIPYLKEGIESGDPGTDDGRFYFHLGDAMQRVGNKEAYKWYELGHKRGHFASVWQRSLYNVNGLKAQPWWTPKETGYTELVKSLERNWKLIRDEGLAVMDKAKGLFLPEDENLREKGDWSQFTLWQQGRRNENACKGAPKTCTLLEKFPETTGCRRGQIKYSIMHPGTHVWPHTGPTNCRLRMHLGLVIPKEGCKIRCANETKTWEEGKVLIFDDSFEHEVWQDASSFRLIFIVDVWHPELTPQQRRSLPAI
Where a name gives a salt, the structure may show the parent alone.
quantityKind: Plate 1-duplicate (% inhibition) (%)

{"compound": "Cc1c(Cn2c(C)nc3c(C(=O)O)cc(N4CCOCC4)cc32)cccc1C(F)(F)F [GSK2636771]", "targetUnderTest": "human AspH (His6-AspH315–758) (Homo sapiens, UniProt Q12797)", "unitOfMeasure": "%", "experimentalValue": 13.40}
{"compound": "Nc1ncn([C@@H]2O[C@H](CO)[C@@H](O)[C@H]2O)c(=O)n1 [Azacitidine]", "targetUnderTest": "human AspH (His6-AspH315–758) (Homo sapiens, UniProt Q12797)", "unitOfMeasure": "%", "experimentalValue": 12.26}
{"compound": "COc1cc2nccc(Oc3ccc(NC(=O)NC4CC4)c(Cl)c3)c2cc1C(N)=O [Lenvatinib]", "targetUnderTest": "human AspH (His6-AspH315–758) (Homo sapiens, UniProt Q12797)", "unitOfMeasure": "%", "experimentalValue": -15.77}
{"compound": "CC(=O)Nc1ccc(C(=O)Nc2ccccc2N)cc1 [CI-994_Tacedinaline]", "targetUnderTest": "human AspH (His6-AspH315–758) (Homo sapiens, UniProt Q12797)", "unitOfMeasure": "%", "experimentalValue": 4.57}
{"compound": "OC[C@H]1O[C@@H](n2cnc3c2NC=NC[C@H]3O)C[C@@H]1O [Pentostatin]", "targetUnderTest": "human AspH (His6-AspH315–758) (Homo sapiens, UniProt Q12797)", "unitOfMeasure": "%", "experimentalValue": 8.07}
{"compound": "CS(=O)(=O)CCNCc1ccc(-c2ccc3ncnc(Nc4ccc(OCc5cccc(F)c5)c(Cl)c4)c3c2)o1 [Lapatinib]", "targetUnderTest": "human AspH (His6-AspH315–758) (Homo sapiens, UniProt Q12797)", "unitOfMeasure": "%", "experimentalValue": -19.57}
{"compound": "CO[C@H]1C[C@@H]2CC[C@@H](C)[C@@](O)(O2)C(=O)C(=O)N2CCCC[C@H]2C(=O)O[C@H]([C@H](C)C[C@@H]2CC[C@@H](OP(C)(C)=O)[C@H](OC)C2)CC(=O)[C@H](C)/C=C(\\C)[C@@H](O)[C@@H](OC)C(=O)[C@H](C)C[C@H](C)/C=C/C=C/C=C/1C [Ridaforolimus]", "targetUnderTest": "human AspH (His6-AspH315–758) (Homo sapiens, UniProt Q12797)", "unitOfMeasure": "%", "experimentalValue": 8.84}
{"compound": "O=C(O)C(=O)O.[NH-][C@@H]1CCCC[C@H]1[NH-].[Pt+2] [Oxaliplatin]", "targetUnderTest": "human AspH (His6-AspH315–758) (Homo sapiens, UniProt Q12797)", "unitOfMeasure": "%", "experimentalValue": 11.28}
{"compound": "C[C@]12O[C@H](C[C@]1(O)CO)n1c3ccccc3c3c4c(c5c6ccccc6n2c5c31)CNC4=O [Lestaurtinib]", "targetUnderTest": "human AspH (His6-AspH315–758) (Homo sapiens, UniProt Q12797)", "unitOfMeasure": "%", "experimentalValue": 16.08}
{"compound": "COc1cccc2c1C(=O)c1c(O)c3c(c(O)c1C2=O)C[C@@](O)(C(C)=O)C[C@@H]3O[C@H]1C[C@H](N)[C@H](O)[C@H](C)O1 [Daunorubicin hydrochloride]", "targetUnderTest": "human AspH (His6-AspH315–758) (Homo sapiens, UniProt Q12797)", "unitOfMeasure": "%", "experimentalValue": -40.01}
